# testedOn: UniProtKB P0A884
# Sequence (P0A884 whole entry): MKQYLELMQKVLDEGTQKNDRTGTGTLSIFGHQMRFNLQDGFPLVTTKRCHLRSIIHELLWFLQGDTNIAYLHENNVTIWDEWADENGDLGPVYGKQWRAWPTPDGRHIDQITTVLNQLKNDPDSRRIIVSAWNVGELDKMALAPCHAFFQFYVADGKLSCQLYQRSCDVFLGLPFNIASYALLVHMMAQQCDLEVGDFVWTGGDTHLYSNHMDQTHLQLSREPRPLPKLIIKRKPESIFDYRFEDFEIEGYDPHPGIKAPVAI
measuredProperty: Ki (µM)

Sample records with Ki:
INSERT INTO assay_data (querysmiles, testedon, measuredproperty, endpointunit, resultvalue) VALUES
  ('O=C1OC(=O)c2cc(NS(=O)(=O)c3cccc4ccccc34)cc3cccc1c23', 'UniProtKB P0A884', 'Ki', 'µM', 1.1),
  ('O=C1OC(=O)c2cc(NS(=O)(=O)/C=C/c3ccccc3)cc3cccc1c23', 'UniProtKB P0A884', 'Ki', 'µM', 0.3),
  ('O=C1OC(=O)c2cc(NS(=O)(=O)c3ccc(S(=O)(=O)c4ccccc4)s3)cc3cccc1c23', 'UniProtKB P0A884', 'Ki', 'µM', 1.2);

P. O=C1OC(=O)c2ccc(Cl)c3cccc1c23
Q. O=C1OC(=O)c2cc(NS(=O)(=O)c3cccc4cccnc34)cc3cccc1c23
R. O=C(Nc1cc2c3c(cccc3c1)C(=O)OC2=O)c1cccc(C(F)(F)F)c1
S. Nc1ccc(C(=O)Nc2cc3c4c(cccc4c2)C(=O)OC3=O)cc1
Query block: Hey, quick one: sort these by Ki, low to high? // respond by listing labels in the order requested
Result block: Q, R, S, P
